# Assay System: T1, human LAG-3 on cells (HEK293-hLAG-3 stable cell line) (human, UniProt P18627 23-525)
# T1 sequence: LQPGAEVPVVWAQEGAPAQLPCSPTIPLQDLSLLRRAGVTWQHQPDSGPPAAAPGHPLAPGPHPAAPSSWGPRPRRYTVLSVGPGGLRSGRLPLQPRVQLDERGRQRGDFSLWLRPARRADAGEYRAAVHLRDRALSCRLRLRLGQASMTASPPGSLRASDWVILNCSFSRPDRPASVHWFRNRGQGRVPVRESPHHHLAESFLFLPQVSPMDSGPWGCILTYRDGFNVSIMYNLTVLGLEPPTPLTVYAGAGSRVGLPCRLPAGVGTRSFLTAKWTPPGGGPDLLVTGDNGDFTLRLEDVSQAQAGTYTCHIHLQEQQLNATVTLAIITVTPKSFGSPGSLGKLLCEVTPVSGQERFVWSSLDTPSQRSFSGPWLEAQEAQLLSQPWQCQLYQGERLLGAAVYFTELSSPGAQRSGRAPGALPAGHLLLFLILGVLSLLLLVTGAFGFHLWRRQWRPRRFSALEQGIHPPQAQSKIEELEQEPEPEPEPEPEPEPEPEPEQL
# Assay Info: FACS, HEK293-hLAG-3, antibody 0.013 nM
Assay Readout: Mean fluorescence intensity
Respond using a number only.

Req: Requested read-out: Mean fluorescence intensity. Entry: 405B8H3 mouse-human chimeric antibody (antibody, V domains shown, also called mAb103-405B8H3) VH: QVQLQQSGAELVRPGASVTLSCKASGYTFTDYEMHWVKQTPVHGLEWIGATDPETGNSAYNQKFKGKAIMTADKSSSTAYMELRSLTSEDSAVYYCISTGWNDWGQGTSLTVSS VL: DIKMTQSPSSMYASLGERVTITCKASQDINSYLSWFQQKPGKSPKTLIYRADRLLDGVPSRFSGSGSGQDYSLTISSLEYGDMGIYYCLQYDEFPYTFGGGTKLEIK
Resp: 9

Req: What do you get for 405B8H3-9 humanized antibody (antibody, V domains shown) VH: QVQLVQSGAEVKKPGASVKVSCKASGYTFTDYEMHWVRQAPGQGLEWMGATDPETGNSAYNQKFKGRVTMTRDTSTSTVYMELSSLRSEDTAVYYCISTGWNDWGQGTTVTVSS VL: DIKMTQSPSSLSASVGDRVTITCKASQDINSYLSWFQQKPGKSPKSLIYRADRLLDGVPSRFSGSGSGQDYTLTISSLQPEDFATYYCLQYDEFPYTFGQGTKLEIK ?
Resp: 14

Req: What do you get for 405B8H3-6 humanized antibody (antibody, V domains shown) VH: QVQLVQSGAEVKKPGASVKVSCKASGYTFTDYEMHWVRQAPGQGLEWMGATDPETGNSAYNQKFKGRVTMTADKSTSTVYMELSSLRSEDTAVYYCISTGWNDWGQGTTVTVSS VL: DIQMTQSPSSLSASVGDRVTITCKASQDINSYLSWFQQKPGKAPKSLIYRADRLLDGVPSRFSGSGSGQDYTLTISSLQPEDFATYYCLQYDEFPYTFGQGTKLEIK ?
Resp: 9
